Ref: patent EP4512427A1

# System: MDA-MB-453
# experiment: In vitro cytotoxicity assay (MTT)
# Type: cell-based, human
# conditionSet: Homo sapiens, MDA-MB-453, 144 h, 6 days incubation
observable: pIC50
Remember, pIC50 is on a log scale: it is -log10 of the molar concentration.

Asked: Quick check: pIC50 on MDA-MB-453, item Nc1ccc(Nc2nc(NCc3ccc(-c4ccccn4)cc3)n3ncc(Br)c3n2)cc1 ?
Given back: 7.91

Asked: I'm curious: which pIC50 was measured for N[C@H]1CC[C@H](CNc2nc(NCc3ccc(-c4ccccn4)cc3)n3ncc(Br)c3n2)CC1 tested on MDA-MB-453?
Given back: 7.75

***
Asked: State its pIC50 on MDA-MB-453: N[C@H]1CCC[C@@H]1Nc1nc(NCc2ccc(-c3ccccn3)cc2)n2ncc(Br)c2n1
Given back: 8.75

Asked: # returns recorded pIC50 (system: MDA-MB-453) for NC1CCN(c2nc(NCc3ccc(-c4ccccn4)cc3)n3ncc(Br)c3n2)CC1
Given back: 8.82
